Below, each entry is listed with its recorded pKi.
Molecular target: UniProtKB P17706
Sequence (P17706 whole entry, looked up): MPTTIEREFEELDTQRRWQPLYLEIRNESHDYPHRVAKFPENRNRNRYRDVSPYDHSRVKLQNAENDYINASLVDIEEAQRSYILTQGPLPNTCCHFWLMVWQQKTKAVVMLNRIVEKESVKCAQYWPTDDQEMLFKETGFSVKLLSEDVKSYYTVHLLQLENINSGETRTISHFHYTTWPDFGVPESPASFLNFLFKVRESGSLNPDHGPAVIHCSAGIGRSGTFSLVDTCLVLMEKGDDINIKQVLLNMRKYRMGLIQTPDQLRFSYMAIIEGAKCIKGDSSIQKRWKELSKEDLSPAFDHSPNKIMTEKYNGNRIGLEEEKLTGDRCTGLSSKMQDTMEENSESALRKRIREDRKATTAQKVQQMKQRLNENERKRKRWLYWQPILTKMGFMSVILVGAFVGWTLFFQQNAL
pKi field: float, defined as -log10 of concentration (mol/L).

Illustrative cases are given below, each with its answer.
CCCCCNC(=O)C(Cc1ccc(N(C(=O)C(=O)O)c2ccccc2C(=O)O)cc1)NC(C)=O (stereo not given)
4.96
CCCCCNC(=O)C(Cc1ccc(N(C(=O)C(=O)O)c2ccccc2C(=O)O)c(CCO)c1)NC(C)=O (stereo not given)
5.82
CCCCCNC(=O)C(Cc1ccc(N(C(=O)C(=O)O)c2ccccc2C(=O)O)c(C(C)C)c1)NC(C)=O (stereo not given)
5.92

Note to self: pKi recorded for CCCCCNC(=O)C(Cc1ccc(N(C(=O)C(=O)O)c2ccccc2C(=O)O)cc1)NC(=O)OC(C)(C)C (stereo not given) was 4.89

----------
Target: UniProt:P18031
Sequence (P18031 whole entry): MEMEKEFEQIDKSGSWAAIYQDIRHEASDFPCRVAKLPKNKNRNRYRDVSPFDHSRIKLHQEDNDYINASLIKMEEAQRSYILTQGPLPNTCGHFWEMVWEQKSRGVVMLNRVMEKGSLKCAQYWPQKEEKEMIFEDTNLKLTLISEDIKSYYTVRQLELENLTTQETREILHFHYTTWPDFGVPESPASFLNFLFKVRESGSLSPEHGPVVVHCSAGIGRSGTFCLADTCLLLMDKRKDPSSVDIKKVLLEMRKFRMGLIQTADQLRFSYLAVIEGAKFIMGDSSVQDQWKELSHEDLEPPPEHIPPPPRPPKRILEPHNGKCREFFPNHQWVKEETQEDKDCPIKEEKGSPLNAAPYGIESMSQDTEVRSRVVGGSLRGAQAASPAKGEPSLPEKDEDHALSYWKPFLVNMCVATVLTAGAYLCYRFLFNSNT
Assay: Dissociation constant towards protein-tyrosine phosphatase 1B of human was determined
Kd: recorded values

# count of solved cases: 6
O=C(O)C(=O)N(c1ccccc1C(=O)O)c1cccc2c1CCCC2
71 µM
CC(C)c1ccccc1N(C(=O)C(=O)O)c1ccccc1C(=O)O
49 µM
O=C(O)C(=O)N(c1ccc2ccccc2c1)c1ccccc1C(=O)O
11 µM
O=C(O)C(=O)N(c1ccccc1CCO)c1ccccc1C(=O)O
35 µM
O=C(O)C(=O)N(c1ccccc1C(=O)O)c1ccccc1N1CCCCC1
13 µM
O=C(O)C(=O)N(c1ccccc1Cc1ccccc1)c1ccccc1C(=O)O
35 µM

Looking up Cc1cccc(N(C(=O)C(=O)O)c2ccccc2C(=O)O)c1C , I found its Kd recorded as 124 µM

Summary for this compound, O=C(O)C(=O)N(c1ccccc1C(=O)O)c1cccc2ccccc12 : Kd is 26 µM

Looking up CCc1ccccc1N(C(=O)C(=O)O)c1ccccc1C(=O)O , I found its Kd recorded as < 50 µM

----------
Each entry below carries its reported Cmax.
Experiment: Maximum plasma concentration of compound was determined after oral administration in rat
Format: ADME, organism-based
Design: route oral
Please answer using the number first and the unit second.

CCCCCNC(=O)C(Cc1ccc(N(C(=O)C(=O)O)c2ccccc2C(=O)O)c(CCO)c1)NC(C)=O (stereo not drawn)
90 ng/mL

Query CCCCCNC(=O)C(Cc1ccc(N(C(=O)C(=O)O)c2ccccc2C(=O)O)c(CC)c1)NC(C)=O (stereo not drawn) yields Cmax of 690 ng/mL

Cmax for O=C(O)C(=O)N(c1ccccc1C(=O)O)c1cccc2ccccc12 is 1720 ng/mL
